Test system: ACHN
Assay: NCI tumour cell line growth inhibition, 48 h
Active and inactive are the calls of the source. No stated cut-off is given here; in the data, active = GI50 up to about 1.1 µM and inactive = higher.
// classify into 1 (yes) (active), 0 (no) (inactive)

See these solved cases before continuing.
COC(=O)C(=O)C(C(=O)C(=O)Nc1ccccc1C(C)=O)c1nc2ccc(C(=O)c3ccccc3)cc2nc1O (centres undefined); 0 (no)
CN(C)/N=N/c1ccc(S(N)(=O)=O)cc1; 0 (no)
COc1ccc(-c2nc3c(nc2-c2ccc(OC)cc2)N(C)S(=O)(=O)N=C3N)cc1; 0 (no)
Cc1cccc2c1CC(C1OC(=O)c3c(C)cccc31)C2=O (centres undefined); 0 (no)

// next entry
Ask: Which result was noted for this compound in the test: C[C@]12CCNC(=O)C=C1CC[C@@H]1C2CC[C@@]2(C)C1CC[C@@H]2OC(=O)COc1ccc(N(CCCl)CCCl)cc1 (some centres undefined)
Result: 1 (yes)

These entries and their values trace back to ChEMBL document CHEMBL1201862.
